Data provenance: ChEMBL document CHEMBL2375274

# Ratio values compiled below
Test: Ratio of drug uptake in Wistar rat brain to Wistar rat striatum after 30 mins
Details: in vivo, 0.5 h

Compound | Ratio
CCN(CC)C(=O)C1Sc2cc(OC)ccc2-c2c1c1ccccc1n2CCF (racemic) | 1.4
CCN(CC)C(=O)C1Sc2ccccc2-c2c1c1cccc(OC)c1n2CCF (racemic) | 2
CCN(CC)C(=O)C1Sc2ccccc2-c2c1c1cc(C#N)ccc1n2CCF (racemic) | 1.93
CCN(CC)C(=O)C1Sc2ccccc2-c2c1c1cc(Cl)ccc1n2CCF (racemic) | 1.57
CCN(CC)C(=O)C1Sc2ccccc2-c2c1c1cc(C)ccc1n2CCF (racemic) | 1.73
CCN(CC)C(=O)C1c2ccccc2-c2[nH]c3ccccc3c21 (racemic) | 1
CCN(CC)C(=O)C1(C)Sc2ccccc2-c2c1c1ccccc1n2CCF (racemic) | 0.88
CCN(CC)C(=O)C1Sc2cccc(OC)c2-c2c1c1ccccc1n2CCF (racemic) | 1.78
CCN(CC)C(=O)C1Sc2ccccc2-c2c1c1ccc(OC)nc1n2CCF (racemic) | 2.11
CCN(CC)C(=O)C1Sc2cc(O)ccc2-c2c1c1ccccc1n2CCF (racemic) | 1.44
CCN(CC)C(=O)C1Sc2ccccc2-c2c1c1ccccc1n2CCF (racemic) | 1.42
CCN(CC)C(=O)C1Sc2c(OC)cccc2-c2c1c1ccccc1n2CCF (racemic) | 1.53
CCN(CC)C(=O)C1Sc2ccc(OC)cc2-c2c1c1ccccc1n2CCF (racemic) | 1.37
CCN(CC)C(=O)C1Sc2ccc(F)cc2-c2c1c1ccccc1n2CCF (racemic) | 1.37
CCN(CC)C(=O)C1Sc2ccc(O)cc2-c2c1c1ccccc1n2CCF (racemic) | 1.25
CCN(CC)C(=O)C1Sc2ccccc2-c2c1c1cc(O)ccc1n2CCF (racemic) | 1
CCN(CC)C(=O)C1Sc2ccccc2-c2c1c1c(OC)cccc1n2CCF (racemic) | 2.42
CCN(CC)C(=O)C1Sc2ccccc2-c2c1c1cc(OC(F)(F)F)ccc1n2CCF (racemic) | 1.46

---

Tested on: Striatum
Experiment: Ratio of drug uptake in Wistar rat striatum after 2 mins to Wistar rat striatum after 30 mins
Type: ADME, tissue-based
Settings: in vivo
Endpoint: Ratio

Compound | Endpoint | Observed
CCN(CC)C(=O)C1Sc2ccccc2-c2c1c1cc(O)ccc1n2CCF (racemic) | Ratio | 1.33
CCN(CC)C(=O)C1Sc2cc(O)ccc2-c2c1c1ccccc1n2CCF (racemic) | Ratio | 1.11
CCN(CC)C(=O)C1Sc2ccccc2-c2c1c1ccc(OC)nc1n2CCF (racemic) | Ratio | 4.67
CCN(CC)C(=O)C1(C)Sc2ccccc2-c2c1c1ccccc1n2CCF (racemic) | Ratio | 2.75
CCN(CC)C(=O)C1Sc2ccccc2-c2c1c1ccccc1n2CCF (racemic) | Ratio | 2.16

---

Measured logP accompanies every entry in the list below.
Assay: Octanol-water partition coefficient, log P of the compound by reversed phase liquid chromatography
Type: physicochemical
Endpoint: logP

Compound | Observed
CCN(CC)C(=O)C1Sc2ccc(F)cc2-c2c1c1ccccc1n2CCF (racemic) | 3.84
CCN(CC)C(=O)C1c2c(n(CCF)c3ccccc23)-c2ccccc2S1(=O)=O (racemic) | 3
CCN(CC)C(=O)C1Sc2cc(N(CCF)C(C)=O)ccc2-c2c1c1ccccc1n2CCF (racemic) | 3.13
